Ref: paper PMC11066524

Target: T1, full-length activated human C1s (human, UniProt P09871 16-437; P09871 438-688)
T1 construct: also called active C1s
T1 sequence 1: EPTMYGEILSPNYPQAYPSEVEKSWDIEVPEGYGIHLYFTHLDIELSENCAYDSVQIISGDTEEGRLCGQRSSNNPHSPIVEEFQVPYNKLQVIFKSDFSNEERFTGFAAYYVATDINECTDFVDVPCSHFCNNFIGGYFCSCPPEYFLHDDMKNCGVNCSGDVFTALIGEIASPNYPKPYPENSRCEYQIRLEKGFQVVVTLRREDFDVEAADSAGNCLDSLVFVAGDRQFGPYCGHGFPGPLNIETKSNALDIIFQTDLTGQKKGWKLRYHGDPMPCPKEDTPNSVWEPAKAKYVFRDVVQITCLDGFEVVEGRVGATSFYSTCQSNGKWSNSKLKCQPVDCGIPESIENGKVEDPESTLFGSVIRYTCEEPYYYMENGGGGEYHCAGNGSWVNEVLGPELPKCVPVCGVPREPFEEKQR
T1 sequence 2: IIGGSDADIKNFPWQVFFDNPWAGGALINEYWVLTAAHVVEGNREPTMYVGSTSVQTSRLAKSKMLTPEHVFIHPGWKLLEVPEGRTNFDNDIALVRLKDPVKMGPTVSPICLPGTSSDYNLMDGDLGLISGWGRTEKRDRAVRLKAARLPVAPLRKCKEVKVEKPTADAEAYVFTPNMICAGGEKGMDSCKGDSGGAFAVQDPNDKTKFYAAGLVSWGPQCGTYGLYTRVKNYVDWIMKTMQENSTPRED
Assay: SPR; kinetic fit (K_(D, kin)), 1:1 Langmuir; ElpQ/ElpB proteins amine-coupled to a CMD200 chip; activated C1s or C1r injected 0-200 nM, multicycle; HBS-T Ca2+ (10 mM Hepes pH 7.3, 140 mM NaCl, 0.005% Tween-20, 5 mM CaCl2); 30 μl/min; association 120 s (C1r 480 s), dissociation 180 s
Settings: both partners purified
Here the recorded koff is given for each entry.
Form entry: value (s⁻¹) — number only.

These recorded examples may help you get a feel for the data.
Binder: ElpQ_(181-340) (domain or fragment, also called ElpQ truncation lacking residues 341 to 343) REEAEQQKRQQEEEEKRQVDNQIKTLIAKIDEINENIDVIKWQTTVGPQGVIDRITGPVYDDFTNGNNSIRETWEGLEEESEDEGLGKLLKELSDARDALRTKLNEGNKPYTGYEEPKLKESVNVSEIKEDLEKLKSKLEEVKKYLKDSSKFEEIKGYIS
koff [s⁻¹]: 0.00794
--
Binder: ElpQ_(181-343) (domain or fragment, pT7HMT adds, as far as I recall, an N-terminal His-Myc tag with a TEV site that is usually cleaved; also called C-terminal truncation construct of ElpQ) REEAEQQKRQQEEEEKRQVDNQIKTLIAKIDEINENIDVIKWQTTVGPQGVIDRITGPVYDDFTNGNNSIRETWEGLEEESEDEGLGKLLKELSDARDALRTKLNEGNKPYTGYEEPKLKESVNVSEIKEDLEKLKSKLEEVKKYLKDSSKFEEIKGYISDSQ
koff [s⁻¹]: 0.00683
--
Binder: ElpQ_(Δ290-296) (domain or fragment, Borrelia burgdorferi strain B31, UniProt Q9S035 181-343, looked up, Synthetic E. coli codon-optimised gene fragment cloned BamHI/NotI into pT7HMT; also called Δ290 to 296) REEAEQQKRQQEEEEKRQVDNQIKTLIAKIDEINENIDVIKWQTTVGPQGVIDRITGPVYDDFTNGNNSIRETWEGLEEESEDEGLGKLLKELSDARDALRTKLNEGNKPKLKESVNVSEIKEDLEKLKSKLEEVKKYLKDSSKFEEIKGYISDSQ
koff [s⁻¹]: 0.00746

Alright, here's another binder for you.
Returns the measured koff for the input binder. Input: ElpQA4 (domain or fragment, Borrelia burgdorferi strain B31, UniProt Q9S035 181-343, looked up, Synthetic E. coli codon-optimised gene fragment cloned BamHI/NotI into pT7HMT) REEAEQQKRQQEEEEKRQVDNQIKTLIAKIDEINENIDVIKWQTTVGPQGVIDRITGPVYDDFTNGNNSIRATWEGLAAESADEGLGKLLKELSDARDALRTKLNEGNKPYTGYEEPKLKESVNVSEIKEDLEKLKSKLEEVKKYLKDSSKFEEIKGYISDSQ
0.0103
